# Target entity: Lysine-specific demethylase 4A (Homo sapiens)
# Assay remarks: qHTS Assay for Inhibitors of JMJD2A-Tudor Domain; also: nearly all actives have a fitted effect of over 50% in size
# Run parameters: AlphaScreen JMJD2A-Tudor / H3K4me3 peptide binding; series mostly up to 114 µM
Out of some 390,000 compounds screened, about 17,000 (4.4%) were called active. About 8% were inconclusive and are not listed. Calls follow the shape of the dose curve; as a rule, active = well fitted inhibition curve with a large enough effect; inconclusive = small, poorly fitted or top-dose-only effect; inactive = no such curve, though single readings can be large or run the other way. Shown is part of a subset that was picked to be rich in actives.
Answer with one of the outcomes given here: 1 (yes) for active, 0 (no) for inactive

Some solved entries appear below for comparison.
>>> class_assignment("COC(=O)c1ccc(COc2ccc(/C=N/NC(=O)C(=O)Nc3ccc(OC)cc3)cc2OC)o1")
"0 (no)"
>>> class_assignment("COCCn1c(SCC(=O)c2cc(C)ccc2C)nc2cc(C(=O)NC3CCCC3)ccc2c1=O")
"0 (no)"

Ask | Dear all, I need the recorded test outcome for `CCN(c1ccc(NC(=O)COC(=O)CCc2nc3ccccc3n2-c2ccccc2)cc1)C(C)C` , thank you.
Reply | 1 (yes)

====

# Target entity: Lysine-specific demethylase 4A (Homo sapiens) (UniProt O75164)
# Sequence (O75164 whole entry, looked up, the tested form may be a part): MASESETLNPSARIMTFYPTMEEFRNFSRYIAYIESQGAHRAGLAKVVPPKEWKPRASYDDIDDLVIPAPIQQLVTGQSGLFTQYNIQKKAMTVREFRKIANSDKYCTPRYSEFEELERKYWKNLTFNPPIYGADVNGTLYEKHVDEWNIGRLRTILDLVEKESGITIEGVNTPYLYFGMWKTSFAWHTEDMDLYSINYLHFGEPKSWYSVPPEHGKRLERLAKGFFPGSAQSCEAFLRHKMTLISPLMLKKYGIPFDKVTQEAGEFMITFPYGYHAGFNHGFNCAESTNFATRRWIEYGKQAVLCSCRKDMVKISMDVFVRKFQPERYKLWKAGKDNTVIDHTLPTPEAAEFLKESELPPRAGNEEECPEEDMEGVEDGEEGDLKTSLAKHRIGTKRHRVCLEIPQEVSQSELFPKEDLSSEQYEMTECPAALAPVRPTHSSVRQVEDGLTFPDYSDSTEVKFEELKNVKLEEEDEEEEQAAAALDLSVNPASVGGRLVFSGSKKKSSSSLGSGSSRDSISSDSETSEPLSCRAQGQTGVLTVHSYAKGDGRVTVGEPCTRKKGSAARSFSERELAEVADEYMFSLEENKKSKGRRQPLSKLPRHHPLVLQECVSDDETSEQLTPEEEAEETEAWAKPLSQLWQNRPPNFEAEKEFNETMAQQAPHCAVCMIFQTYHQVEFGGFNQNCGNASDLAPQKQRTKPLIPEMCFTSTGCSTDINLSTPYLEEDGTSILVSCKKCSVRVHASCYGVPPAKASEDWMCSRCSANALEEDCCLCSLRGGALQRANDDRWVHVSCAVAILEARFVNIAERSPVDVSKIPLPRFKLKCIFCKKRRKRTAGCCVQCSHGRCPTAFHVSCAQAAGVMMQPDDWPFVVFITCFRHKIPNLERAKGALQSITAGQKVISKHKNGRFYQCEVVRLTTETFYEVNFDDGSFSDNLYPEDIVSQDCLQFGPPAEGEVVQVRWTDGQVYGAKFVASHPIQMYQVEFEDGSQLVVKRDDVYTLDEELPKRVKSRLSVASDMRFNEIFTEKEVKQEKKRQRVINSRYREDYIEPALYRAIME
# Assay remarks: qHTS Assay for Inhibitors of JMJD2A-Tudor Domain; also: nearly all actives have a fitted effect of over 50% in size
# Run parameters: AlphaScreen JMJD2A-Tudor / H3K4me3 peptide binding; series mostly up to 114 µM
About 17,000 (4.4%) of roughly 390,000 compounds were called active. Not shown: some 8% with an inconclusive outcome. Calls follow the shape of the dose curve; as a rule, active = well fitted inhibition curve with a large enough effect; inconclusive = small, poorly fitted or top-dose-only effect; inactive = no such curve, though single readings can be large or run the other way. The sample as a whole holds a higher share of actives than the screen did.
Hi! Could you answer with just one of these? active, inactive

>>> class_assignment("CCc1cnc2c(c1SCC(=O)N1CCC(C)CC1)c(=O)n(C)c(=O)n2C")
"inactive"
>>> class_assignment("CCOc1cc2[nH]c(=S)n(CCN3CCCCC3C)c(=O)c2cc1OCC (stereo unspecified)")
"inactive"
>>> class_assignment("COc1ccc(-c2cccc(NS(=O)(=O)c3cc(C)c(OC)c(C)c3C)c2)nn1")
"inactive"
>>> class_assignment("Cc1ccc(NC(=O)Cn2nnc3sc4c(c3c2=O)CCC(C)C4)cc1 (stereo unspecified)")
"inactive"

Ask | Outcome? `CCC(=O)Nc1nnc(S(=O)(=O)N2CCCc3ccccc32)s1`
Reply | inactive

Ask | What did the test return for `CCOc1cc2[nH]c(=S)n(CCCN3CCCC3=O)c(=O)c2cc1OCC` ?
Reply | active

====

# Target entity: Lysine-specific demethylase 4A (Homo sapiens) (UniProt O75164)
# Assay remarks: qHTS Assay for Inhibitors of JMJD2A-Tudor Domain; also: nearly all actives have a fitted effect of over 50% in size
# Run parameters: AlphaScreen JMJD2A-Tudor / H3K4me3 peptide binding; series mostly up to 114 µM
In all, about 390,000 compounds went through this assay and about 17,000 (4.4%) were called active. Roughly 8% stayed inconclusive and do not appear here. Calls follow the shape of the dose curve; as a rule, active = well fitted inhibition curve with a large enough effect; inconclusive = small, poorly fitted or top-dose-only effect; inactive = no such curve, though single readings can be large or run the other way. The entries come from a sample that favours actives as a whole.
// one of label 1 for active, label 0 for inactive, no free text

Solved cases below.
>>> class_assignment("Cc1ccc(NCc2n[nH]c(=S)n2-c2ccccc2)cc1Cl")
"label 0"
>>> class_assignment("CCOc1ccc(CN2CCN(CCCc3ccccc3)C(CCO)C2)cc1 (centres undefined)")
"label 0"
>>> class_assignment("CSc1n[nH]c(=S)n1N")
"label 1"
>>> class_assignment("CCOC(=O)c1ccc(NC(=O)CCn2cnnn2)cc1")
"label 0"
>>> class_assignment("COc1ccc2c(c1)c(=Cc1ccc(N(C)C)cc1)c1cc(-c3ccccc3)[n+](C)n12")
"label 1"

Ask | Could you check what this test reported for `Cc1cccc(NC(=O)CSc2nc(-c3ccco3)cc(C(F)(F)F)n2)c1C` ?
Reply | label 0

Ask | // return assay outcome for `CNC(=O)CN1C(=O)c2cccnc2Sc2ccccc21`
Reply | label 0

Ask | Per the assay record, what outcome was assigned to CC(Oc1ccccc1[N+](=O)[O-])C(=O)N/N=C/c1ccoc1 (centres undefined) ?
Reply | label 0

====

# Target entity: Lysine-specific demethylase 4A (Homo sapiens)
# Assay remarks: qHTS Assay for Inhibitors of JMJD2A-Tudor Domain; also: nearly all actives have a fitted effect of over 50% in size
# Run parameters: AlphaScreen JMJD2A-Tudor / H3K4me3 peptide binding; series mostly up to 114 µM
# Description: JMJD2A is a jumonji-domain-containing lysine demethylase that uses Fe(II) together with 2-OG to effect oxidative demethylation of histones. Methylation is one of many […] modification that affect epigenetic transcription. […] A quantitative high throughput AlphaScreen has been developed to identify small molecule inhibitors based on a protocol published by NCGC and SGC [4]. […] [2] Yasgar, et al. Compound Management for Quantitative High-Throughput Screening. […]
The whole screen tested about 390,000 compounds, of which about 17,000 (4.4%) were called active. Another 8% or so got no clear call; they are omitted. The call rests on the fitted dose curve; in most records, active means well fitted inhibition curve with a large enough effect; inconclusive means small, poorly fitted or top-dose-only effect; inactive means no such curve, though single readings can be large or run the other way. The entries come from a sample that favours actives as a whole.
Assign a class; possible classes are active, inactive

>>> class_assignment("CCCNC(=O)CCC(=O)N1Cc2ccccc2Oc2ncccc21")
"inactive"
>>> class_assignment("CCOc1cc(-c2nnc(SCC(=O)NC3CCCCC3)nc2-c2ccc(OC)c(OCC)c2)ccc1OC")
"inactive"
>>> class_assignment("COc1cnc(-c2ccccn2)nc1Oc1ccc(C(C)(C)C)cc1")
"active"

Ask | Identify the outcome logged in this assay for the compound shown: `C/C(=N\NC(=O)c1ccccc1F)c1ccccn1`
Reply | active

Ask | Given CC1=NNC(=O)C1CCC(=O)N/N=C(\C)c1ccc(Cl)cc1 (stereo not drawn) , state the outcome it received in this test.
Reply | inactive

====

# Target entity: Lysine-specific demethylase 4A (Homo sapiens)
# Assay remarks: qHTS Assay for Inhibitors of JMJD2A-Tudor Domain; also: nearly all actives have a fitted effect of over 50% in size; also: potency is read from the fitted curve at half-maximal effect
# Run parameters: AlphaScreen JMJD2A-Tudor / H3K4me3 peptide binding; series mostly up to 114 µM
Among all 390,000 compounds or so, about 17,000 (4.4%) were called active. Another 8% or so got no clear call; they are omitted. Many of the other results were omitted from the sample, so actives are more common in it than they were.
Quantity measured: Potency

In the examples that follow, each entry is paired with its recorded Potency.
>>> result("COc1ccc(OCc2ccc(-c3nc4ccccc4c(=O)n3N)o2)cc1")
"inactive"
>>> result("CNC(=S)Nc1ccc([N+](=O)[O-])cc1")
"inactive"
>>> result("NC(=O)C1(Nc2ccc([N+](=O)[O-])cc2)CCCC1")
"inactive"
>>> result("CCC(=O)N1CCc2cc(S(=O)(=O)NC(CC(C)C)C(=O)NCCc3cccc(C)c3)ccc21 (stereo not given)")
"inactive"
>>> result("COc1ccccc1OCCCn1c(-c2ccc(Cl)cc2)nc2ccccc2c1=O")
"inactive"
>>> result("COc1ccc(CNCCCNCc2ccc(OC)c(OC)c2)cc1OC")
"inactive"
>>> result("COc1ccccc1-c1cc(C(F)(F)F)nc(S(=O)(=O)CCCC(=O)Nc2cc(C)ccc2O)n1")
"inactive"
>>> result("O=C1CSC2(C(=O)N(Cc3ccccc3)c3ccccc32)N1c1cccc(F)c1 (stereo not given)")
"inactive"

Ask | Endpoint output: Potency of `CN(Cc1ccccc1)C(=O)c1cn(C)c2ccc(S(=O)(=O)N3CCCCC3)cc2c1=O` . Value?
Reply | inactive

Ask | Which Potency is listed for `O=C(O)/C=C/C(=O)NNc1ccc([N+](=O)[O-])cc1` ?
Reply | 31.6 µM (active)

====

# Target entity: Lysine-specific demethylase 4A (Homo sapiens) (UniProt O75164)
# Assay remarks: qHTS Assay for Inhibitors of JMJD2A-Tudor Domain; also: nearly all actives have a fitted effect of over 50% in size
# Run parameters: AlphaScreen JMJD2A-Tudor / H3K4me3 peptide binding; series mostly up to 114 µM
In all, about 390,000 compounds went through this assay and about 17,000 (4.4%) were called active. Roughly 8% stayed inconclusive and do not appear here. The call rests on the fitted dose curve; in most records, active means well fitted inhibition curve with a large enough effect; inconclusive means small, poorly fitted or top-dose-only effect; inactive means no such curve, though single readings can be large or run the other way. The list comes from a sample in which actives are over-represented; it also holds close analogues and randomly drawn compounds.
I would appreciate it if you answered using one of these outcomes: active, inactive

Ask | What call does the record list for CCOc1cc(C2c3c(-c4ccc(Br)cc4)n[nH]c3C(=O)N2c2ccc(Cl)cc2)ccc1O (stereo not drawn) ?
Reply | inactive

====

# Target entity: Lysine-specific demethylase 4A (Homo sapiens)
# Assay remarks: qHTS Assay for Inhibitors of JMJD2A-Tudor Domain; also: nearly all actives have a fitted effect of over 50% in size
# Run parameters: AlphaScreen JMJD2A-Tudor / H3K4me3 peptide binding; series mostly up to 114 µM
About 17,000 (4.4%) of roughly 390,000 compounds were called active. About 8% were inconclusive and are not listed. Calls follow the shape of the dose curve; as a rule, active = well fitted inhibition curve with a large enough effect; inconclusive = small, poorly fitted or top-dose-only effect; inactive = no such curve, though single readings can be large or run the other way. The sample as a whole holds a higher share of actives than the screen did.
Give your call using only these classes: 1 = active, -1 = inactive

Please review the following examples before continuing.
>>> class_assignment("CCOc1ccc(Nc2ncnc3scc(-c4ccc(OC)cc4)c23)cc1")
-1
>>> class_assignment("Cc1ccc(NC(=O)/C(=C\\c2ccccc2)NC(=O)c2ccco2)cc1")
-1
>>> class_assignment("COc1ccc(C)cc1Nc1n[n+](-c2ccccc2)c(-c2cccc(Cl)c2Cl)s1")
-1
>>> class_assignment("Cc1cc(NC(=O)c2cccc(Cl)c2)ccc1-c1cc2ccccc2oc1=O")
-1
>>> class_assignment("CCc1ccccc1NS(=O)(=O)c1ccc2nc(-c3ccccc3)[nH]c2c1")
-1
>>> class_assignment("COc1ccc(N2CCN(Cc3nnc(-c4ccccc4)o3)CC2)cc1")
-1
>>> class_assignment("COc1ccc(N2CCN(C(=O)c3cccs3)CC2)cc1")
-1
>>> class_assignment("COC(=O)/C=C\\C(=O)Nc1cccc([N+](=O)[O-])c1")
1

Ask | Check the results log: what was the call for `CCOc1ccc(CNCc2c(C(=O)O)c(C)n(Cc3cccc(OC)c3)c2C)cc1OC` ?
Reply | -1

Ask | What is the recorded call for this compound in the test? `CCC(CC)NC(=O)/C=C/c1cccc([N+](=O)[O-])c1`
Reply | -1

Ask | Call for entry `COc1cccc(CNC(=O)C2CCN(S(=O)(=O)c3ccc4c(ccn4C)c3)CC2)c1` :
Reply | -1
